# experiment-description: In vitro hemolytic toxicity on red blood cells
# Assay type: cell-based, human
# study-conditions: human, NB cells 24 h exposure; read-out: Selectivity index (SI) = IC50 RBCs / IC50 HTLA-ER
readout-label: selectivity ratio at 60 min

>  <molecule>
c1ccc([P+](CCCCCCCCCCCC[P+](c2ccccc2)(c2ccccc2)c2ccccc2)(c2ccccc2)c2ccccc2)cc1

>  <readout-label>
selectivity ratio at 60 min

>  <reported>
> 10

$$$$

* * *

# System: Human MRC-5 lung fibroblast cells
# experiment-description: Presto Blue viability test on MRC-5 lung fibroblasts
# Format: cell-based
# study-conditions: 24 h exposure; concentration range 0.5–5 µM

>  <molecule>
c1ccc([P+](CCCCCCCCCCCC[P+](c2ccccc2)(c2ccccc2)c2ccccc2)(c2ccccc2)c2ccccc2)cc1

>  <IC50 / nM>
2770

$$$$

* * *

# experiment-description: Presto Blue viability test on MRC-5 lung fibroblasts
# Assay type: cell-based, human
# study-conditions: human, 24 h; read-out: Selectivity index (SI) = IC50 MRC-5 / IC50 HTLA-ER

>  <molecule>
c1ccc([P+](CCCCCCCCCCCC[P+](c2ccccc2)(c2ccccc2)c2ccccc2)(c2ccccc2)c2ccccc2)cc1

>  <selectivity ratio at 24 h>
2.5

$$$$

* * *

# experiment-description: Presto Blue viability test on MRC-5 lung fibroblasts
# Type: cell-based, human
# study-conditions: human, 72 h; read-out: Selectivity index (SI) = IC50 MRC-5 / IC50 HTLA-ER
readout-label: selectivity ratio at 72 h

>  <molecule>
c1ccc([P+](CCCCCCCCCCCC[P+](c2ccccc2)(c2ccccc2)c2ccccc2)(c2ccccc2)c2ccccc2)cc1 [BPPB]

>  <readout-label>
selectivity ratio at 72 h

>  <reported>
~1

$$$$

* * *

# System: Human MRC-5 lung fibroblast cells
# experiment-description: Presto Blue viability test on MRC-5 lung fibroblasts
# Assay type: cell-based
# study-conditions: Homo sapiens, MRC5, 24 h, 24 h exposure; concentration range 0.5–5 µM
pIC50: −log10 of the molar value.
readout-label: pIC50

>  <compound>
c1ccc([P+](CCCCCCCCCCCC[P+](c2ccccc2)(c2ccccc2)c2ccccc2)(c2ccccc2)c2ccccc2)cc1 [BPPB]

>  <reported>
5.55

$$$$

* * *

# System: HTLA-ER cells
# experiment-description: Cell viability assay (CellTiter 96 AQueous One Solution) on etoposide-resistant HTLA-ER NB cells
# Assay type: cell-based, human
# study-conditions: 24 h exposure; refined concentration range 0.1–2 µM
pIC50: −log10 of the molar value.

>  <compound>
c1ccc([P+](CCCCCCCCCCCC[P+](c2ccccc2)(c2ccccc2)c2ccccc2)(c2ccccc2)c2ccccc2)cc1 [BPPB]

>  <pIC50>
5.95

$$$$

* * *

# System: HepG2 cells
# experiment-description: MTT cytotoxicity assay on HepG2 cells
# Type: cell-based, human
# study-conditions: Homo sapiens, HepG2, 24 h, MTT, concentration range 0.4–85.3 µM
pIC50: −log10 of the molar value.

>  <molecule>
c1ccc([P+](CCCCCCCCCCCC[P+](c2ccccc2)(c2ccccc2)c2ccccc2)(c2ccccc2)c2ccccc2)cc1

>  <pIC50>
5.02

$$$$

* * *

# experiment-description: Presto Blue viability test on MRC-5 lung fibroblasts
# Assay type: cell-based, human
# study-conditions: human, MRC-5 lung fibroblast cells; 5.0 µM; 48 h; read-out: Percentage of viable MRC-5 cells with respect to seeded cells at T0

>  <molecule>
c1ccc([P+](CCCCCCCCCCCC[P+](c2ccccc2)(c2ccccc2)c2ccccc2)(c2ccccc2)c2ccccc2)cc1

>  <units>
%

>  <viability at 48 h, 5 µM>
2.78

$$$$
